# test.summary: Cytotoxicity against LPS-induced mouse BV2 cells assessed as cell viability at 2 uM pretreated for 15 mins followed by LPS-stimulation measured after 24 hrs by MTT assay relative to control
# Type: cell-based, BV-2
# recorded.conditions: LPS-stimulated BV2 cells, read-out: Activity
measured.metric: viability at 24 h, 2 µM

Enquiry: Provide only the value of recorded viability at 24 h, 2 µM for C=C1C(=O)C[C@@]2(OC)C[C@]3(O)CC(C)(C)C[C@@H]3[C@]12C
Return: 47%

Enquiry: Please list viability at 24 h, 2 µM recorded for the compound C=C1C(=O)C[C@]2(O)[C@H](O)C3=C(CC(C)(C)C3=O)[C@]12C
Return: 95%

Enquiry: # return recorded viability at 24 h, 2 µM for input C=C1C(=O)C=C2C=C3[C@@H](O)C(C)(C)C[C@@]3(O)[C@]12C
Return: 94%

Enquiry: Please give the documented viability at 24 h, 2 µM of C=C1[C@H](O)C[C@]2(O)C[C@]3(O)CC(C)(C)C[C@]3(O)[C@]12C
Return: 93%
